- System: CAKI-1 renal
- assayExplanation: NCI tumour cell line growth inhibition, 48 h
readoutType: TGI

# molecule, assayedTarget, valueMeasured
measured = [
    ("[N-]=[N+]=NC(c1cn(C2CC(O)C(CO)O2)c(=O)[nH]c1=O)C(Br)I (centres undefined)", "CAKI-1 renal", "> 100 µM"),
    ("O=c1cc(C(F)(F)F)c2cc3c(cc2o1)NCCC3", "CAKI-1 renal", "> 100 µM"),
    ("CN(c1ccc(Cl)cc1)S(=O)(=O)c1ccccc1", "CAKI-1 renal", "> 100 µM"),
    ("Cn1c(O)c(/C=N/c2ncccn2)c(=O)[nH]c1=O", "CAKI-1 renal", "> 100 µM"),
    ("CCOC(=O)NC(OCc1ccccc1)(C(=O)OC)C(F)(F)F (centres undefined)", "CAKI-1 renal", "87.1 µM"),
    ("C=C(C)[C@@H]1CC[C@]2(C(=O)OC3OC(COC4OC(CO)C(OC5OC(C)C(O)C(O)C5O)C(O)C4O)C(O)C(O)C3O)CC[C@]3(C)[C@H](CC[C@@H]4[C@@]5(C)CC[C@H](O)[C@@](C)(CO)[C@@H]5CC[C@]43C)[C@@H]12 (some centres undefined)", "CAKI-1 renal", "> 9.66 µM"),
    ("O=c1c2ccccc2c2ccccc2c(=O)n1-c1cc2c3ccccc3ccc2c2ccccc12", "CAKI-1 renal", "> 100 µM"),
    ("Cc1ccc(C(=O)NN=C(/N=N/c2cccc(C)c2)c2ccc(N(C)C)cc2)cc1", "CAKI-1 renal", "> 100 µM"),
    ("Cn1c(=O)[nH]n(-c2ccc3ccccc3c2)c1=O", "CAKI-1 renal", "> 100 µM"),
]
